B1: HDAC6 (parent)
chain: DLMETTQYMNEGELRVLADTYDSV

Variants of: B1
Assay: protein stability index of a GFP-peptide fusion (GPS, HEK-293T) (PSI 1-6); higher = more stable;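 note: lentivirally expressed fusions sorted by FACS into six bins by GFP to DsRed ratio, PSI derived from sequencing read proportions per bin multiplied by bin number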
Conditions: c terminus: a fixed tail appended
Assign class by protein stability index: not lower than 2 means met; lower than 2 means not met.

1. L14Y = not met
2. V16M = met
3. N10F = not met
4. V16N = met
5. S23V = not met
6. Y8Q = met
7. E13D = met
8. T6M = not met
9. S23W = met
10. T20F = met
11. V16S = met
12. N10E = met
13. Y8M = met
14. M3Q = met
15. E11A = met
16. E11K = met
17. D19I = met
18. S23I = not met
19. V24H = met
20. D19F = met
21. V16Q = met
22. D1T = met
23. V16C = met
24. L2H = met
25. D22V = not met
26. L17V = not met
27. D19T = not met
28. A18W = not met
29. L14S = met
30. V24F = not met
31. T6K = not met
32. V16H = met
33. T6S = not met
34. V24S = not met
35. V24P = met
36. Y8K = met
37. V24A = not met
38. Y8P = met
39. E11D = not met
40. L17R = met
41. L2T = met
42. D19Q = not met
